Test system: Staphylococcus aureus
Assay: Antibacterial activity against Staphylococcus aureus Oxford
Format: functional
The reader will find reported log10 of MIC values listed item by item below.
Remember, log10 of MIC, in µg/mL.

The cases that follow already have their log10 of MIC on record.
Oc1cc(N[C@@H]2CCC[C@H](NCc3ccc(Cl)c(Cl)c3)C2)nc2ccccc12 (racemic); 1.81
Oc1cc(NC[C@H]2CC[C@@H]2NCc2ccc(Cl)c(Cl)c2)nc2ccccc12 (racemic); 0.30
Oc1cc(NC[C@H]2CCC[C@H]2NCc2ccc(Cl)c(Cl)c2)nc2ccccc12; 1.20

Challenge: May I ask what log10 of MIC has been recorded for `Oc1cc(NC[C@H]2OCC[C@@H]2NCc2ccc(Cl)c(Cl)c2)nc2ccccc12` ?
Response given: 1.81

Challenge: May I ask what log10 of MIC has been recorded for `Oc1cc(NC[C@@H]2CCC[C@@H]2NCc2ccc(Cl)c(Cl)c2)nc2ccccc12` ?
Response given: 0.90

Challenge: May I ask what log10 of MIC has been recorded for `Oc1cc(NC[C@H]2CCC[C@@H]2NCc2ccc(Cl)c(Cl)c2)nc2ccccc12` ?
Response given: 0.00

* * *

The reader will find reported MIC values listed item by item below.
Tested on: Staphylococcus aureus
Experiment: Antibacterial activity against Staphylococcus aureus Oxford
Type: functional

The cases that follow already have their MIC on record.
Oc1cc(NCC2=CCCC2NCc2ccc(Cl)c(Cl)c2)nc2ccccc12 (racemic); > 64 µg/mL
Oc1cc(N[C@H]2CCC[C@H](NCc3ccc(Cl)c(Cl)c3)C2)nc2ccccc12 (racemic); > 64 µg/mL
Oc1cc(NC[C@H]2CCC[C@@H]2NCc2cc(Br)cc(Br)c2)nc2ccccc12; < 0.06 µg/mL
Oc1cc(NC[C@@H]2CCC[C@H]2NCc2ccc(Cl)c(Cl)c2)nc2ccccc12; > 64 µg/mL
Oc1cc(N[C@H]2CC[C@H](NCc3ccc(Cl)c(Cl)c3)CC2)nc2ccccc12; > 64 µg/mL

Challenge: # returns recorded MIC (system: Staphylococcus aureus) for `Oc1cc(NCc2ccccc2NCc2ccc(Cl)c(Cl)c2)nc2ccccc12`
Response given: > 64 µg/mL

Challenge: # returns recorded MIC (system: Staphylococcus aureus) for Oc1cc(NC[C@H]2CC[C@H]2NCc2ccc(Cl)c(Cl)c2)nc2ccccc12 (racemic)
Response given: > 64 µg/mL

Challenge: # returns recorded MIC (system: Staphylococcus aureus) for `CCOc1c(Br)cc(Br)cc1CN[C@H]1CCC[C@@H]1CNc1cc(O)c2ccccc2n1`
Response given: < 0.06 µg/mL
